The origin of these recorded values is paper PMC8138313.

Molecular target: HLA B*4402 (Homo sapiens, UniProt P01889, A223V/A65T/A93T/A95T/D201E/D98Y/E176V/E187L/E204Q/E69K/G107R/H137Y/K202T/L105A/L119I/N104T/N87E/Q56L/Q94N/R106L/R155S/R180D/S101N/S121R/S35A/S48T/T118I/V36M/W191S/Y140D/Y91S)
Assay: HLA class I binding assay (cell-free competition, fluorescence polarization)
Where a SMILES comes first, the peptide text is derived from it.
Field: IC50. Provide a value for each of the molecules that follow.
Give the value, in units of µM, as a plain number.

Documented IC50 of CC[C@H](C)[C@H](NC(=O)[C@H](CCCCN)NC(=O)CNC(=O)CNC(=O)[C@H](CC(C)C)NC(=O)[C@H](CCC(N)=O)NC(=O)[C@H](CO)NC(=O)[C@H](CCC(=O)O)NC(=O)[C@@H](N)Cc1ccc(O)cc1)C(=O)O (H-YESQLGGKI-OH) : 66.3

Documented IC50 of C[C@@H](O)[C@H](NC(=O)[C@H](CC(N)=O)NC(=O)[C@H](Cc1ccc(O)cc1)NC(=O)[C@@H](NC(=O)[C@H](CO)NC(=O)[C@@H](NC(=O)[C@H](CO)NC(=O)[C@H](CCC(=O)O)NC(=O)[C@@H](N)CO)[C@@H](C)O)[C@@H](C)O)C(=O)O (H-SESTSTYNT-OH) : 103
